Numbers sourced from paper doi:10.1101/2025.05.09.649859.

System: J2 IgG HC Y54F
MEASUREMENT PROTOCOL: BLI
ASSAY CONTEXT: 25 mM Tris-HCl pH 7.5, 2 mM MgCl2, 100 mM KCl (FP, 21 C) or 100-400 mM KCl (BLI, IgG on Protein A, 25 C)
READOUT KIND: Kd (nM)
Reply numerically in nM, unit not repeated.

Q. Look up Kd for this sequence: GUUGUAAAGAAGGUCAAUAU / AUAUUGACCUUCUUUACAAC [20-bp dsRNA]
A. 710
